# System: Vero
# protocol-description: In vitro antiviral activity was evaluated against vero cell lines infected with visna virus; non toxic at concentrations as high as 50000 uM
# Type: functional, cell-based
# assay-context: Chlorocebus sabaeus
The source made the active and inactive calls. The rule behind the calls is not given here.
outcome-measure: Activity

Solved entries (count: 4):
{"columns": ["compound", "Activity"],
 "data": [
  ["O=P(O)(O)[C@H]1O[C@@H](CO)[C@H](O)[C@H](O)[C@@H]1O (stereo in doubt; 17)", "inactive"],
  ["O=P(O)(O)[C@H]1O[C@@H](CO)[C@H](O)[C@H](O)[C@@H]1O (stereo in doubt; 19)", "inactive"],
  ["Nc1ncnc2c1ncn2C1O[C@H](COP(=O)(O)OP(=O)(O)C2O[C@H](CO)[C@@H](O)[C@H](O)[C@H]2O)[C@@H](O)[C@H]1O (stereo not given in full)", "inactive"],
  ["CC(=O)OP(=O)(O)C1OC(COCc2ccccc2)C(OCc2ccccc2)C(OCc2ccccc2)C1OCc1ccccc1 (stereo not given)", "inactive"]
]}

Now let's try a different one.
[Q] Give the measured Activity for "O=P(O)(O)[C@H]1O[C@@H](CO)[C@@H](O)[C@H](O)[C@@H]1O"
[A] inactive
